Tested on: dermal fibroblast
Assay: Influence of fatty acids on intracellular neutral lipid content of dermal fibroblast from diabetic patient, enzyme assay
Assay type: cell-based, human
Parameters: scale not given here
Conditions: based on part of the results in FIG. 4 and FIG. 5
measured-parameter: Intracellular TG-decreasing activity
In your answer, state the number alone without any accompanying words.

Q: Give its Intracellular TG-decreasing activity value. Item: CCCCCCCC(=O)O [caprylic acid]
Ans: 5

Q: // same read-out, input: CC(C)CCCCCCC(=O)O [8-methylnonanoic acid]
Ans: 100

Q: // query: CCCCCCC(=O)O [heptanoic acid, reference compound]
Ans: 0

Q: Try this compound next: CCCCCCCCCC(=O)O [capric acid]
Ans: 100
